Just for reference, ChEMBL document CHEMBL1201862 is where these values come from.

# System: A498
# PROCEDURE DETAILS: NCI tumour cell line growth inhibition, 48 h
Activity calls are given as the source filed them. Rule as the data show it: active = GI50 up to about 1.1 µM and inactive = higher.
READOUT NAME: GI50

OCC(O)C(OC1OC(CO)C(O)C(O)C1O)c1nn(-c2ccccc2)c2nc3cc(Cl)c(Cl)cc3cc12 (centres undefined): > 100 µM (inactive)
CN1CCN(c2ccc(-n3cc(C(=O)O)c(=O)c4cc(F)c(N5CCN(C)CC5)cc43)nc2)CC1: > 100 µM (inactive)
COC(=O)[C@]12CCC(C)(C)C[C@H]1C1=CC[C@@H]3[C@@]4(C)CC[C@H](OC5OC(CO)C(O)C(O)C5OC5OC(CO)C(O)C(O)C5O)C(C)(C)[C@@H]4CC[C@@]3(C)[C@]1(C)CC2 (some centres undefined): 11.3 µM (inactive)
CCOc1cc2c(cc1OC)c[n+](C)c1c3cc(OC)c(OC)cc3ccc21: 47.6 µM (inactive)
